# EXPERIMENTAL TARGET: pseudokinase JH2 domain of JAK1 (Homo sapiens, UniProt P23458)
# Construct: the pseudokinase JH2 domain of JAK1 (89%); purchased Ambit Biosciences (scanMAXX KINOMEscan)
# Sequence (P23458 583-855 limits assumed): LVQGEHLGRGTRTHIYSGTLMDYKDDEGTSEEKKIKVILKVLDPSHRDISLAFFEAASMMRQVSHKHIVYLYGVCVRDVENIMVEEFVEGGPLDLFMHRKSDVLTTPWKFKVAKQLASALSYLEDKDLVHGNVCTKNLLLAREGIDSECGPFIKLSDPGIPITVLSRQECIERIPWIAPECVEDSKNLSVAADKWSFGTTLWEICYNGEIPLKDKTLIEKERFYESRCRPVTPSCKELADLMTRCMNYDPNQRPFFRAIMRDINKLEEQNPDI
# METHOD SUMMARY: KINOMEscan, JAK1 JH2 domain
# Type: binding
# DETAILS: kinase JAK1(JH2domain-pseudokinase); 1 µM; read-out: % of control at 1 µM
MEASURED PARAMETER: remaining binding at 1 µM (%)
Use % as the unit, but write only the number.

FC(F)c1nc2ccccc2n1-c1nc(N2CCOCC2)nc(N2CCOCC2)n1 | 100
Nc1cc(C(F)(F)F)c(-c2cc(N3CCOCC3)nc(N3CCOCC3)n2)cn1 | 89
CS(=O)(=O)N1CCN(Cc2cc3nc(-c4cccc5[nH]ncc45)nc(N4CCOCC4)c3s2)CC1 | 11
Cn1c(=O)n(-c2ccc(C(C)(C)C#N)cc2)c2c3cc(-c4cnc5ccccc5c4)ccc3ncc21 | 43

Now look at this entry.
State the recorded remaining binding at 1 µM for this entry: COc1ncc(-c2ccc3nccc(-c4ccnnc4)c3c2)cc1NS(=O)(=O)c1ccc(F)cc1F
57

----------
remaining activity at 1 µM values, listed per item
# EXPERIMENTAL TARGET: panel of 442 kinases (Homo sapiens)
# Construct: purchased Ambit Biosciences (scanMAXX KINOMEscan)
# Sequence (P53778 1-367): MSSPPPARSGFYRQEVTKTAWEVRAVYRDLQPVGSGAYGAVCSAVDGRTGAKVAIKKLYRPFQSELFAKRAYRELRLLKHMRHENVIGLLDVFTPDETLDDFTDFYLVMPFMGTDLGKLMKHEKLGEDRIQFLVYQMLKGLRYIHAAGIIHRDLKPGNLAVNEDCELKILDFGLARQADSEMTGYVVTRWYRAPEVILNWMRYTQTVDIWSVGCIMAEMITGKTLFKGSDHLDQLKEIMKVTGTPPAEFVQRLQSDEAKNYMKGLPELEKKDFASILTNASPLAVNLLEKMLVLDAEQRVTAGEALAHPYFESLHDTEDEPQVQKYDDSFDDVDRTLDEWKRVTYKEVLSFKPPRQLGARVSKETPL
# METHOD SUMMARY: biochemical
# Assay type: binding
# DETAILS: kinase p38-gamma; 1 µM; read-out: % of control at 1 µM
Use % as the unit, but write only the number.

Some compounds with known remaining activity at 1 µM results, for comparison:
Nc1cc(C(F)(F)F)c(-c2cc(N3CCOCC3)nc(N3CCOCC3)n2)cn1 | 100
COc1ncc(-c2ccc3nccc(-c4ccnnc4)c3c2)cc1NS(=O)(=O)c1ccc(F)cc1F | 69
Cn1c(=O)n(-c2ccc(C(C)(C)C#N)cc2)c2c3cc(-c4cnc5ccccc5c4)ccc3ncc21 | 100

Now look at this entry.
State the recorded remaining activity at 1 µM for this entry: FC(F)c1nc2ccccc2n1-c1nc(N2CCOCC2)nc(N2CCOCC2)n1
100

----------
# EXPERIMENTAL TARGET: panel of 442 kinases (Homo sapiens, UniProt P00519, F317I)
# Construct: purchased Ambit Biosciences (scanMAXX KINOMEscan)
# METHOD SUMMARY: biochemical
# Format: binding
# DETAILS: ABL1(F317I)-phosphorylated; 1 µM; read-out: % of control at 1 µM
MEASURED PARAMETER: remaining activity at 1 µM (%)
Use % as the unit, but write only the number.

Some compounds with known remaining activity at 1 µM results, for comparison:
COc1ncc(-c2ccc3nccc(-c4ccnnc4)c3c2)cc1NS(=O)(=O)c1ccc(F)cc1F [Omipalisib] | 100
Cn1c(=O)n(-c2ccc(C(C)(C)C#N)cc2)c2c3cc(-c4cnc5ccccc5c4)ccc3ncc21 [Dactolisib] | 100
FC(F)c1nc2ccccc2n1-c1nc(N2CCOCC2)nc(N2CCOCC2)n1 [ZSTK474] | 88

Now look at this entry.
State the recorded remaining activity at 1 µM for this entry: Nc1cc(C(F)(F)F)c(-c2cc(N3CCOCC3)nc(N3CCOCC3)n2)cn1 [Buparlisib]
78

----------
# EXPERIMENTAL TARGET: catalytic JH1 domain of JAK1 (Homo sapiens, UniProt P23458)
# Construct: the catalytic JH1 domains of JAK1 and JAK2; purchased Ambit Biosciences (scanMAXX KINOMEscan)
# Sequence (P23458 875-1153 limits assumed): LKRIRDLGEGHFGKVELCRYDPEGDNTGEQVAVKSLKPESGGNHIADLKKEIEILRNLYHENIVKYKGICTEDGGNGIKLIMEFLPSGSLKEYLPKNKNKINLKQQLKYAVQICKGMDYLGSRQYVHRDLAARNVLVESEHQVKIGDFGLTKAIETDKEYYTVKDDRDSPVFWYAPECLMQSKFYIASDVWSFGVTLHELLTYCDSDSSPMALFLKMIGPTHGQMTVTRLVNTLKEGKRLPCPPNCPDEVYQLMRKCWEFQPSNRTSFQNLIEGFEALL
# METHOD SUMMARY: KINOMEscan, JAK1 JH1 domain
# Type: binding
# DETAILS: kinase JAK1(JH1domain-catalytic); 1 µM; read-out: % of control at 1 µM
MEASURED PARAMETER: remaining binding at 1 µM (%)
Use % as the unit, but write only the number.

FC(F)c1nc2ccccc2n1-c1nc(N2CCOCC2)nc(N2CCOCC2)n1 | 98
Cn1c(=O)n(-c2ccc(C(C)(C)C#N)cc2)c2c3cc(-c4cnc5ccccc5c4)ccc3ncc21 | 12
Nc1cc(C(F)(F)F)c(-c2cc(N3CCOCC3)nc(N3CCOCC3)n2)cn1 | 96
COc1ncc(-c2ccc3nccc(-c4ccnnc4)c3c2)cc1NS(=O)(=O)c1ccc(F)cc1F | 100

State the recorded remaining binding at 1 µM for this entry: CS(=O)(=O)N1CCN(Cc2cc3nc(-c4cccc5[nH]ncc45)nc(N4CCOCC4)c3s2)CC1
100

----------
# EXPERIMENTAL TARGET: panel of 442 kinases (Homo sapiens)
# Construct: purchased Ambit Biosciences (scanMAXX KINOMEscan)
# METHOD SUMMARY: biochemical
# Assay type: binding
# DETAILS: ACVRL1; 1 µM; read-out: % of control at 1 µM
MEASURED PARAMETER: remaining activity at 1 µM (%)
Use % as the unit, but write only the number.

Cn1c(=O)n(-c2ccc(C(C)(C)C#N)cc2)c2c3cc(-c4cnc5ccccc5c4)ccc3ncc21 | 94
COc1ncc(-c2ccc3nccc(-c4ccnnc4)c3c2)cc1NS(=O)(=O)c1ccc(F)cc1F | 100

State the recorded remaining activity at 1 µM for this entry: FC(F)c1nc2ccccc2n1-c1nc(N2CCOCC2)nc(N2CCOCC2)n1
100

State the recorded remaining activity at 1 µM for this entry: Nc1cc(C(F)(F)F)c(-c2cc(N3CCOCC3)nc(N3CCOCC3)n2)cn1
84

----------
# EXPERIMENTAL TARGET: panel of 442 kinases (Homo sapiens, UniProt Q32MK0)
# Construct: purchased Ambit Biosciences (scanMAXX KINOMEscan)
# Sequence (Q32MK0 whole entry): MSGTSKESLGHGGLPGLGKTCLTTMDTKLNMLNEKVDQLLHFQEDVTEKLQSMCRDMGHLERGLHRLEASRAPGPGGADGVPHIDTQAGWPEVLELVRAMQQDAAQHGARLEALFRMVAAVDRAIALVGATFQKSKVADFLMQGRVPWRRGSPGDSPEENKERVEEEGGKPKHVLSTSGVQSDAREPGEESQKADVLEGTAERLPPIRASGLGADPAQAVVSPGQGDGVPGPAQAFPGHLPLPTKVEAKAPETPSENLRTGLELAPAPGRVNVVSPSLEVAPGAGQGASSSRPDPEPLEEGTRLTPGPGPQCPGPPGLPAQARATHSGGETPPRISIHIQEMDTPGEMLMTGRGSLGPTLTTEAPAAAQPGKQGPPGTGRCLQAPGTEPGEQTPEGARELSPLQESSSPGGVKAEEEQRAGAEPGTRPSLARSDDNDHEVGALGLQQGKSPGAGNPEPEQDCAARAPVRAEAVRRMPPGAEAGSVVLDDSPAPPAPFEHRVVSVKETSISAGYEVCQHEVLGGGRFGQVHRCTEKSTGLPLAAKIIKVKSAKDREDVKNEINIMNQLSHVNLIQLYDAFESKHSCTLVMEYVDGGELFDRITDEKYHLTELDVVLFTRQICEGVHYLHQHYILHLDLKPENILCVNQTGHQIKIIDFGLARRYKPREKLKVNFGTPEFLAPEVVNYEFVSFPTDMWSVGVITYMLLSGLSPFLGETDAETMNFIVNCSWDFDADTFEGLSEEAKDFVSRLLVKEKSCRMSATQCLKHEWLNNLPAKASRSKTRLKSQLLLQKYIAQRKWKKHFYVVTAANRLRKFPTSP
# METHOD SUMMARY: biochemical
# Assay type: binding
# DETAILS: kinase MLCK; 1 µM; read-out: % of control at 1 µM
remaining activity at 1 µM values, listed per item

Some molecules with known remaining activity at 1 µM results, for comparison:
Cn1c(=O)n(-c2ccc(C(C)(C)C#N)cc2)c2c3cc(-c4cnc5ccccc5c4)ccc3ncc21 | 80%
Nc1cc(C(F)(F)F)c(-c2cc(N3CCOCC3)nc(N3CCOCC3)n2)cn1 | 100%
FC(F)c1nc2ccccc2n1-c1nc(N2CCOCC2)nc(N2CCOCC2)n1 | 92%

Now look at this entry.
State the recorded remaining activity at 1 µM for this entry: COc1ncc(-c2ccc3nccc(-c4ccnnc4)c3c2)cc1NS(=O)(=O)c1ccc(F)cc1F
100%

----------
# EXPERIMENTAL TARGET: panel of 442 kinases (Homo sapiens, UniProt P00519, T315I)
# Construct: purchased Ambit Biosciences (scanMAXX KINOMEscan)
# METHOD SUMMARY: biochemical
# Type: binding
# DETAILS: ABL1(T315I)-nonphosphorylated; 1 µM; read-out: % of control at 1 µM
MEASURED PARAMETER: remaining activity at 1 µM (%)
Use % as the unit, but write only the number.

State the recorded remaining activity at 1 µM for this entry: Cn1c(=O)n(-c2ccc(C(C)(C)C#N)cc2)c2c3cc(-c4cnc5ccccc5c4)ccc3ncc21
58

State the recorded remaining activity at 1 µM for this entry: COc1ncc(-c2ccc3nccc(-c4ccnnc4)c3c2)cc1NS(=O)(=O)c1ccc(F)cc1F
98

State the recorded remaining activity at 1 µM for this entry: FC(F)c1nc2ccccc2n1-c1nc(N2CCOCC2)nc(N2CCOCC2)n1
50

State the recorded remaining activity at 1 µM for this entry: Nc1cc(C(F)(F)F)c(-c2cc(N3CCOCC3)nc(N3CCOCC3)n2)cn1
94

----------
# EXPERIMENTAL TARGET: panel of 442 kinases (Homo sapiens, UniProt Q06418)
# Construct: purchased Ambit Biosciences (scanMAXX KINOMEscan)
# Sequence (Q06418 41-890): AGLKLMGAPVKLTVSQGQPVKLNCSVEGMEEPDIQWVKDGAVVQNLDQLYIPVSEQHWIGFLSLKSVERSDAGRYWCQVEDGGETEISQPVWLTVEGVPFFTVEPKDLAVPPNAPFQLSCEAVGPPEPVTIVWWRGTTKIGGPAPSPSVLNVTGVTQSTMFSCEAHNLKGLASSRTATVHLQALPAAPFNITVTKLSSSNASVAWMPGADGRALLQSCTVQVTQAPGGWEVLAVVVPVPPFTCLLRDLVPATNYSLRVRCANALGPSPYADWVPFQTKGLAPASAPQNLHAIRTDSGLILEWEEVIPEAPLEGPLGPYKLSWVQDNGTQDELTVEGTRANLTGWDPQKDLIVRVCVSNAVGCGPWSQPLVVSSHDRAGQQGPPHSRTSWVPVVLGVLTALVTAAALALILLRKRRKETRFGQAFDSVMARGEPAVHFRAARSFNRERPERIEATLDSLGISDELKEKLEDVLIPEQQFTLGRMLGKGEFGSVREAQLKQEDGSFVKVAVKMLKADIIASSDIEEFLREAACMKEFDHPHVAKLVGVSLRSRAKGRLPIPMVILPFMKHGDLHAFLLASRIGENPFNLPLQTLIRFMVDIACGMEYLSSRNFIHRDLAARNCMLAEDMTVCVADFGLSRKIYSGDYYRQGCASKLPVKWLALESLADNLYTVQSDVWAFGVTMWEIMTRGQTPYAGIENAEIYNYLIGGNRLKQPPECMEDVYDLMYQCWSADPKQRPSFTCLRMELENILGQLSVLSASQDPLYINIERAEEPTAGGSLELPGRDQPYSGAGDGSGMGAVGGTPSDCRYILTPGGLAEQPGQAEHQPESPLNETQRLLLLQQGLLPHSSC
# METHOD SUMMARY: biochemical
# Type: binding
# DETAILS: kinase TYRO3; 1 µM; read-out: TYRO3 (% of control at 1 µM)
remaining activity at 1 µM values, listed per item

Some compounds with known remaining activity at 1 µM results, for comparison:
FC(F)c1nc2ccccc2n1-c1nc(N2CCOCC2)nc(N2CCOCC2)n1 [ZSTK474] | 88%
COc1ncc(-c2ccc3nccc(-c4ccnnc4)c3c2)cc1NS(=O)(=O)c1ccc(F)cc1F [Omipalisib] | 100%
Cn1c(=O)n(-c2ccc(C(C)(C)C#N)cc2)c2c3cc(-c4cnc5ccccc5c4)ccc3ncc21 [Dactolisib] | 100%

Now look at this entry.
State the recorded remaining activity at 1 µM for this entry: Nc1cc(C(F)(F)F)c(-c2cc(N3CCOCC3)nc(N3CCOCC3)n2)cn1 [Buparlisib]
100%
